METHOD: Cytotoxicity assay on splenocytes, propidium iodide flow cytometry
Assay type: cell-based, mice
ASSAY_CONDITIONS: BALB/c, mouse, murine splenocytes, read-out: CC50
ENDPOINT_LABEL: CC50 at 48 h (µM)
Give bare numbers, in µM.

Reported CC50 at 48 h ( C=C1C(=O)[C@@]23CC[C@H]4[C@@](C)(CCC[C@@]4(C)C(=O)O)[C@@H]2[C@@H](O)C[C@@H]1C3 (single isomer, unassigned; ent-11) ) = 14.8

====

METHOD: Cytotoxicity assay on splenocytes, propidium iodide flow cytometry
Assay type: cell-based, mice
ASSAY_CONDITIONS: BALB/c, mouse, murine splenocytes, read-out: CC50 µg/mL ± SEM
ENDPOINT_LABEL: CC50 at 48 h (µg/mL)
Answers are plain numbers, in µg/mL.

Reported CC50 at 48 h ( C=C1C(=O)[C@@]23CC[C@H]4[C@@](C)(CCC[C@@]4(C)C(=O)O)[C@@H]2[C@@H](O)C[C@@H]1C3 (single isomer, unassigned; ent-11) [Compound 3] ) = 4.9
